Quick list: IHC score per entry.
molecular target: T1, Human EphA2 (ephrin receptor A2) (human, UniProt P29317 24-976); assay: IHC/IF score on frozen human tumor tissue, URO
T1 construct: Endogenous protein in frozen human tumor tissue and tumor adjacent tissue, not a recombinant construct
T1 sequence (P29317 24-976 limits assumed): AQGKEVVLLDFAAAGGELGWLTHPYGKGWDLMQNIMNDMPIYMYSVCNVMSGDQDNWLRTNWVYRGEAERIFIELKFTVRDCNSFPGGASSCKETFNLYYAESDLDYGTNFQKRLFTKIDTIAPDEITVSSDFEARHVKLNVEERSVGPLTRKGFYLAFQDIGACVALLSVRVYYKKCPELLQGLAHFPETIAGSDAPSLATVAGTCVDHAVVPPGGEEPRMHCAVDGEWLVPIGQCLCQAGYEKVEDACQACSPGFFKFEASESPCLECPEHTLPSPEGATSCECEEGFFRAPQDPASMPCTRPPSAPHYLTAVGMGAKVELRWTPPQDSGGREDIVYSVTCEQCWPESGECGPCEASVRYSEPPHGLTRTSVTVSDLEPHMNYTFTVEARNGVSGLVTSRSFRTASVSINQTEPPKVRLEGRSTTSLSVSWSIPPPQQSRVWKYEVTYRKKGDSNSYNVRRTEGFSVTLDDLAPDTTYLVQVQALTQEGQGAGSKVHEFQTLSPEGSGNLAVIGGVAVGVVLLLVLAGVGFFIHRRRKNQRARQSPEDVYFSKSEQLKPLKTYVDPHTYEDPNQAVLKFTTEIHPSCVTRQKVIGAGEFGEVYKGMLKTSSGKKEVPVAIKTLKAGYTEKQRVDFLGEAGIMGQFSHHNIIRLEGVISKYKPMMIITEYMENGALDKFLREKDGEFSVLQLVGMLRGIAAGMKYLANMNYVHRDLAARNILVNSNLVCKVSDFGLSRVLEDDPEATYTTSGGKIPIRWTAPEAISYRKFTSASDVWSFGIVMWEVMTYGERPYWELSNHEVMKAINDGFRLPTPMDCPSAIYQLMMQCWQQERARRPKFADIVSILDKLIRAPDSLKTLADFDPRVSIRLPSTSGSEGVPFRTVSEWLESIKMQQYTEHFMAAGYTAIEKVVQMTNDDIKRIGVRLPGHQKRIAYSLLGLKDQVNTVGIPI
No unit in the answer, please; the number alone is enough.

Below: 2 binders and their reported IHC score.
[[record]]
binder = "AB-009816 (antibody, mouse IgG2a, V domains shown) VH: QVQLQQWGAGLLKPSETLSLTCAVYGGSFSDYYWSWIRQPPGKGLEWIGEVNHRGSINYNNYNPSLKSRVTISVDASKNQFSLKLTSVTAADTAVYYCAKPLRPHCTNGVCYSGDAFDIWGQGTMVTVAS VL: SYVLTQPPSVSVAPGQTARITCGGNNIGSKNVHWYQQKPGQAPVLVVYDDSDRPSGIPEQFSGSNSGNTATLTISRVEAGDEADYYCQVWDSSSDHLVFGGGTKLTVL"
valuekind = "IHC score"
measuredvalue = 1

[[record]]
binder = "AB-009812 (antibody, mouse IgG2a, V domains shown) VH: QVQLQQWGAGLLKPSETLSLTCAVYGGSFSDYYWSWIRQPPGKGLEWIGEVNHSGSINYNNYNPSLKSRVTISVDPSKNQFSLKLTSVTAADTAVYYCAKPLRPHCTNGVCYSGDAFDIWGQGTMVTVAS VL: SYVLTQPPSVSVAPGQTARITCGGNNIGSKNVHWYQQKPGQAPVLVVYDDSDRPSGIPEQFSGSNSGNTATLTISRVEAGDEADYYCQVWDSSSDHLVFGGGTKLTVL"
valuekind = "IHC score"
measuredvalue = 1


// returns reported IHC score for input AB-009813 (antibody, mouse IgG2a, V domains shown) VH: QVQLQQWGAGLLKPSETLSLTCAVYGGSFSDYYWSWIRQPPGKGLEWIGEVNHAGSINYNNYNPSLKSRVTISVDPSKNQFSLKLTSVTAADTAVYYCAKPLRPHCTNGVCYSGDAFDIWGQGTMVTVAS VL: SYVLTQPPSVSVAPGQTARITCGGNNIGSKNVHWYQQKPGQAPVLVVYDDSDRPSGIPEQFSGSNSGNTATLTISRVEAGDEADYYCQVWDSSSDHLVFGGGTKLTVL
1

All figures here come from patent US20250051464A1.
